pKi: −log10 of the molar value.
What follows is a collection of pKi values obtained with PAD2 (Homo sapiens, UniProt Q9Y2J8).
Sequence (Q9Y2J8 whole entry): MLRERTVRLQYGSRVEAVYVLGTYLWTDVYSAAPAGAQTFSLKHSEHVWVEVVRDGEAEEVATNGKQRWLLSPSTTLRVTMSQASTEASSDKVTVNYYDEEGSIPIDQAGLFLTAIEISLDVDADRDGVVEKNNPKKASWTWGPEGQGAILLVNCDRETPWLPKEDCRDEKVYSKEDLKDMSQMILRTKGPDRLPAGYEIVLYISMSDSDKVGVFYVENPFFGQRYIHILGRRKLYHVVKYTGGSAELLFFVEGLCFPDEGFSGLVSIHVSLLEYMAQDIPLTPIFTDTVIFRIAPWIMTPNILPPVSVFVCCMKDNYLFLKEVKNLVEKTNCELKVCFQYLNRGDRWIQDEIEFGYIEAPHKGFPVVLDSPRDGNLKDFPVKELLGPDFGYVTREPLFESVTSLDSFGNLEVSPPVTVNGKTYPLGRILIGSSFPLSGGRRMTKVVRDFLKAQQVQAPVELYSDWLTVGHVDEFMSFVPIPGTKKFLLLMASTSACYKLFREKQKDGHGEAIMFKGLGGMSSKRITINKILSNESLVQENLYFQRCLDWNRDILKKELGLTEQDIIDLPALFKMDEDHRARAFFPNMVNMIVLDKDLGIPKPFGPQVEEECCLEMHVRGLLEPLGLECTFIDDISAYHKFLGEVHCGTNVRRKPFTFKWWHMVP
quantity.kind: pKi

[a] COc1ccc2c(c1)nc([C@H](CCCNC(=N)CF)NC(=O)c1cccc3c1C(=O)NC3)n2C
[b] CCOc1cccc2c1nc([C@H](CCCNC(=N)CF)NC(=O)c1cccc3c1C(=O)NC3)n2C
[c] COc1cccc2c1nc([C@H](CCCNC(=N)CF)NC(=O)c1cccc3c1C(=O)N(C)C3)n2C
Q. Rank by pKi (largest to smallest). Please list the labels according to the requested order.
A. c, a, b
(c: 4.89, a: 4.68, b: 4.26)
